Test: COS7 lysate on small-molecule microarray, probe aHis, 635 nm (AID 1123);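 note: z-score combines 667nm fluorescence intensity with signal-to-noise per printed compound spot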
Details: COS7 cell lysate, fluorescence, higher = more signal
parameter_measured: composite z-score

C#CCN=C(N)N | 0.121
COCCOC(=O)N1C(=O)[C@@]2(c3cc(C#CC4=CCCCC4)ccc31)[C@H](c1ccccc1OCCO)N1[C@H](c3ccccc3)[C@H](c3ccccc3)OC(=O)[C@H]1[C@@H]2C(N)=O | 1.14
C=CC[C@]1(C(=O)N(C)C)COC(c2ccc(OCCCO)cc2)=N1 | 3.5
COCCCNC(=O)[C@@H]1c2ccccc2C(=O)N(C2CCCCC2)[C@H]1c1ccc(CO)cc1 | 1.08
COCCOC(=O)N1C(=O)[C@@]2(c3cc(C#CC4=CCCCC4)ccc31)[C@H](C(=O)N1CCc3cc(OC)c(OC)cc3C1)[C@H]1C(=O)O[C@H](c3ccccc3)[C@H](c3ccccc3)N1[C@@H]2c1ccc(O)cc1 | 1.32
COc1ccc([Si](C)(C)[C@H]2[C@H](CCn3cc([C@H](O)c4ccccc4)nn3)O[C@@]3(C(=O)N(C)c4c(Br)cc(C)cc43)[C@@H]2C)cc1 | -0.215

----------
# maps each entry to its composite z-score
System: Neuregulin-1 EGF-like domain
Assay: binders of neuregulin-1 EGF-like domain, primary screen, biochemical, small-molecule microarray, 635 nm fluorescence (AID 1081);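 note: binding of the protein to compounds printed on small-molecule microarray slides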
Details: small-molecule microarray binding, higher = more signal
parameter_measured: composite z-score

C=CC[C@]1(C(=O)NCc2ccccc2)COC(c2ccc(OCCCO)cc2)=N1 | 0.521
CCC[C@@H]1C=C(C(=O)OCC)[C@H](c2ccccc2)N1S(=O)(=O)c1ccc(C)cc1 | 1.06
COC(=O)[C@H](Cc1ccc(O)cc1)N1CC2=CCCC=C[C@@H]2[C@H]1[C@H](O)Cc1ccccc1 | 0.324
O=C1NC(=O)C2C1C=CC(C(O)c1cccc(O)c1)N2Nc1ccc(Cl)cc1Cl (stereo not given) | 0.275
COCCOC(=O)N1C(=O)[C@@]2(c3cc(C#Cc4ccc(OC)cc4)ccc31)[C@H](C(=O)Nc1nc3ccccc3s1)[C@H]1C(=O)O[C@H](c3ccccc3)[C@H](c3ccccc3)N1[C@@H]2c1ccccc1OCCO | 0.923

----------
Assay: cell viability in Huh7 cells, primary screen, cytotoxicity control for HCV replication inhibitor project, CellTiter-Glo luminescence, basal, 48 h (AID 1143);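 note: Huh7 hepatoma cells carrying a hepatitis C replication reporter with no stimulus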
Conditions: Huh7 HCV replicon, higher = more signal, called active from +8 up or from −8 down
The source made the active and inactive calls.
# z-score per record follows
parameter_measured: z-score

CCN(CC)c1ccc(N2CC=CC34O[C@@H]5C=CCOC(=O)[C@@H]5[C@H]3C(=O)N(CCO)[C@@H]4C2=O)cc1 (some centres undefined) | -0.271 (inactive)
O=C1OCCC=C[C@H]2OC34C=CCN(CCN5CCOCC5)C(=O)[C@H]3N(CCCO)C(=O)[C@@H]4C12 (some centres undefined) | -2.19 (inactive)
Cc1ccc(S[C@]2(C(=O)NCCN3CCOCC3)CC(=O)N(C3CCCCC3)[C@@H]2c2ccc(CO)cc2I)cc1 | -2.19 (inactive)
Cc1c(-c2ccc(-c3ccc(Cl)c(Cl)c3)o2)nc(-c2ccccc2)c2c1CO[Si]2(C(C)C)C(C)C | -0.98 (inactive)

----------
Reported composite z-score values follow for various compounds
Test: anti-His antibody binders, primary screen, artefact control for SMM control protein annotation, biochemical, small-molecule microarray, 635 nm fluorescence (AID 1128);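 note: score merges feature fluorescence with signal-to-noise for each printed compound spot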
Details: anti-His Alexa647 antibody binding, higher = more signal
parameter_measured: composite z-score

Cc1ccc(S[C@]2(C(=O)NC3CC3)CC(=O)N(Cc3cc(C(F)(F)F)cc(C(F)(F)F)c3)[C@@H]2c2ccc(CO)cc2I)cc1 | 2.99
CC1CC/C=C\[C@H]2OC34C=CCN(CCN5CCOCC5)C(=O)[C@H]3N(CCCCCCO)C(=O)[C@@H]4C2C(=O)O1 (stereo partly specified) | -0.37
O=C1c2ccccc2[C@](Cc2ccccc2I)(C(=O)O)[C@H](c2ccc(CO)cc2)N1Cc1ccccc1 | 0.729
CN(C)C(=O)[C@]1(Cc2ccccc2CN=[N+]=[N-])N=C(c2ccc(OCCCO)cc2)O[C@@H]1c1ccccc1N=[N+]=[N-] | 0.266
C=CCC(OC(C)=O)[C@@H]1[C@@H](N(Cc2cccc3ccccc23)C(=O)c2ccc(C)cc2)c2cc(OCCCO)ccc2N1C(=O)c1ccc2ccccc2n1 (stereo partly specified) | -0.24
CC(C)[Si](C#CCCCC#N)(O[C@H](c1ccccc1)c1cn([C@H](C)c2ccccc2)nn1)C(C)C | 0.67
CCCCN1CC=CC23O[C@@H]4C=CCOC(=O)[C@@H]4[C@H]2C(=O)N(CCO)[C@@H]3C1=O (stereo partly specified) | -0.211
COc1ccc(CCNC(=O)[C@@]2(Sc3ccc(C)cc3)CC(=O)N(Cc3cc(C(F)(F)F)cc(C(F)(F)F)c3)[C@@H]2c2ccc(CO)cc2)cc1 | -0.588
CC(C)C[C@@H]1NC(=O)[C@@H]2C[C@H](C(=O)O)[C@H](c3ccc(O)cc3)N2C1=O | 2.41
COC(=O)[C@@]1(Cc2ccc(OC)cc2)[C@@H]2[C@@H](CC(=O)[C@H]2CC(=O)C(=O)N2CCCC2)CN1C(=O)c1ccccc1 | 2.96
O=C1C2C=CC(C(O)c3cccc(O)c3)N(Nc3ccccc3F)C2C(=O)N1c1ccccc1 (stereo unspecified) | 0.933
CCCC=C(CCC)[C@@H](NC(=O)c1ccccc1)c1ccc(C(=O)OC)cc1 | 0.877
COC(=O)[C@@]1(Cc2ccc(OC)cc2)[C@H]2c3cc(C(=O)N(C)C)n(Cc4ccsc4Br)c3C[C@H]2CN1C(=O)c1ccccc1 | 1.74
C=CCNC(=O)[C@H]1[C@@H]2C(=O)O[C@@H](c3ccccc3)[C@@H](c3ccccc3)N2[C@@H](c2ccccc2OCCO)[C@]12C(=O)N(C(=O)OCCOC)c1ccccc12 | 1.23
CCCC[C@H]1OB(O)C[C@H]2C1=C(C)C[C@H]1C(=O)C=CC(=O)[C@H]12 | 0.306
CN(C)C(=O)[C@]1(Cc2ccccc2)N=C(c2ccc(OCCCO)cc2)O[C@@H]1c1ccccc1 | 2.94
CCC[C@@H]1C=C(C(=O)OCC)[C@H](c2ccccc2)N1S(=O)(=O)c1ccc(C)cc1 | 0.796
C=CC[C@@]1(C(=O)N(C)C)N=C(c2ccc(OCCCO)cc2)O[C@@H]1c1ccccc1 | 2.63
Cc1c(-c2ccc(-c3ccc(Cl)c(Cl)c3)o2)nc(-c2ccccc2)c2c1CO[Si]2(C(C)C)C(C)C | 0.466
C=C(COC)C(=O)CC[C@@H](OC(C)=O)c1ccc(OCCO)cc1 | 0.476
CCCCC(=C=CC[C@@H](O)c1cccc(OCCO)c1)C[C@@H](O)COCc1ccccc1 | 0.457
CCCCC(=C=CC[C@@H](O)c1ccc(OCCO)cc1)C[C@@H](O)c1ccccn1 | -0.0662
COCCOC(=O)N1C(=O)[C@@]2(c3ccccc31)[C@H](c1ccc(OCCO)cc1)N1[C@H](c3ccccc3)[C@H](c3ccccc3)OC(=O)[C@H]1[C@@H]2C(=O)N1CCN(c2ncccn2)CC1 | 0.46
CC(=O)c1ccc(C(O)C2C=CC3C(=O)N(C)C(=O)C3N2NC(=O)OC(C)(C)C)cc1 (stereo unspecified) | 0.777
C=CCC(OC(C)=O)[C@@H]1[C@@H](N(Cc2cccc3ccccc23)C(=O)c2ccc(-c3ccccc3)cc2)c2cc(OCCCO)ccc2N1C(=O)c1ccc2ccccc2n1 (stereo partly specified) | 0.112
C=CCC(OC(C)=O)[C@@H]1[C@@H](N(Cc2ccc(-c3cccc(C(F)(F)F)c3)o2)C(=O)c2cccc3ccccc23)c2cc(OCCCO)ccc2N1C(=O)c1ccc2ccccc2c1 (stereo partly specified) | 0.272

----------
Test system: XIP peptide (Xip251-270)
Assay: small-molecule binders of XIP peptide, primary screen, biochemical, small-molecule microarray, fluorescence 635/667 nm, 0.5 µg/mL protein (AID 1183)
Settings: small-molecule microarray binding, fluorescence 635 nm; higher = more signal
Please map values of composite z-score to classes as shown: low band: < 0.2; middle band: ≥ 0.2 and < 0.7; high band: ≥ 0.7

CCCC[C@H]1OB(O)C[C@H]2C1=C(COC)C[C@H]1C(=O)C=CC(=O)[C@H]12 | middle band
C=CC[C@]1(C(=O)NCc2ccccc2)COC(c2ccc(OCCCO)cc2)=N1 | high band
COCCOC(=O)N1C(=O)[C@@]2(c3cc(C#CCCO)ccc31)[C@H](c1ccc(O)cc1)N1[C@H](c3ccccc3)[C@H](c3ccccc3)OC(=O)[C@H]1[C@@H]2C(=O)N1CCc2cc(OC)c(OC)cc2C1 | high band
C=CCN1C(=O)[C@]2(O[C@H](CCO)[C@@H]([Si](C)(C)c3ccc(OC)cc3)[C@@H]2C)c2ccccc21 | low band
CC(C)=CCN(C(=O)C#Cc1ccccc1)[C@H](CO)c1ccccc1 | low band
CC(C)CNC(=O)[C@@H]1c2ccccc2C(=O)N(Cc2ccccc2)[C@H]1c1ccc(CO)cc1 | low band
C[C@]1(C(=O)NCC(F)(F)F)c2ccccc2C(=O)N(Cc2ccc(OC(F)(F)F)cc2)[C@H]1c1ccc(CO)cc1 | middle band
C=CCN1C(=O)[C@]2(O[C@H](CCn3cc([C@H](O)c4ccccc4)nn3)[C@@H]([Si](C)(C)c3ccc(OC)cc3)[C@@H]2C)c2cc(N3C(=O)c4cccc5cccc3c45)ccc21 | middle band
COC(=O)c1ccc([C@H](NC(=O)c2ccccc2)[C@]2(C)C[C@H]2C2CCCCC2)cc1 | low band
CCCCC(O)C1C=CC2C(=O)NC(=O)C2N1Nc1ccccn1 (stereo not given) | low band
CC(c1ccccc1)C(O)C1C=CC2C(=O)N(c3ccccc3)C(=O)C2N1Nc1ccc(C#N)cc1 (stereo not given) | high band
COCCOC(=O)N1C(=O)[C@@]2(c3ccccc31)[C@H](C(=O)N1CCCCCCC1)[C@H]1C(=O)O[C@H](c3ccccc3)[C@H](c3ccccc3)N1[C@@H]2c1ccc(O)cc1 | high band

# credit: PubChem BioAssay
